Experiment: Metabolic stability in rat liver microsomes assessed as intrinsic clearance per mg protein after 60 mins by LC-MS analysis
Assay type: ADME, Microsome
QUANTITY_NAME: microsomal CLint (µL/min/mg)
Dear colleague, please return just the value in µL/min/mg, with no unit written.

{"ITEM_SMILES": "CCN(CC)CCNc1cc(-c2ccc(C(F)(F)F)cc2)c(C#N)c2nc3ccccc3n12.Cl.Cl", "QUANTITY_NAME": "microsomal CLint", "RECORDED_VALUE": 69.8}

Returns the measured microsomal CLint for the input compound. Input: Cl.N#Cc1c(-c2ccc(C(F)(F)F)cc2)cc(NCCN2CCOCC2)n2c1nc1ccccc12 108

Here is the next compound: CCNCCNc1cc(-c2ccc(C(F)(F)F)cc2)c(C#N)c2nc3ccccc3n12.Cl.Cl 6.1

Here is the next compound: Cl.N#Cc1c(-c2ccc(C(F)(F)F)cc2)cc(NCCN2CCCCC2)n2c1nc1ccccc12 27

Here is the next compound: Cl.N#Cc1c(-c2ccc(C(F)(F)F)cc2)cc(NCCN2CCCC2)n2c1nc1ccccc12 25.8

Here is the next compound: Cl.N#Cc1c(-c2ccc(C(F)(F)F)cc2)cc(NCCCN2CCOCC2)n2c1nc1ccccc12 234

----------
IC50 for assorted compounds
System: Plasmodium falciparum
Assay: microbe, parasite or virus in culture
Settings: FC27/Papua New Guinea
Description: Antimalarial activity against Plasmodium falciparum FC27
Dear colleague, please return just the value in nM, with no unit written.

{"ITEM_SMILES": "CCNCCNc1cc(-c2ccc(C(F)(F)F)cc2)c(C#N)c2nc3ccccc3n12", "ASSAYED_SYSTEM": "Plasmodium falciparum", "READOUT_UNIT": "nM", "RECORDED_VALUE": 110}

Note: attention shifts to another entry.
Returns the measured IC50 for the input compound. Input: CCN(CC)CCNc1cc(-c2ccc(C(F)(F)F)cc2)c(C#N)c2nc3ccccc3n12 175
